Consider the following compounds; for each one, report its GI50.
Test system: OVCAR-8
experimentNotes: NCI tumour cell line growth inhibition, 48 h
Activity calls are given as the source filed them. Cut-off read from the data, not from the text of the source: active = GI50 up to about 1.1 µM and inactive = higher.

>>> print(df.to_string())
                                   compound  readoutname        measuredvalue
0  COC(=O)C1=NN2c3ccccc3CN([C@@H](C)c3ccccc3)C(=O)[C@@H]2C1         GI50   34.6 µM (inactive)
1  CC(C)=CCC12Cc3ccc(O)cc3C(C(C)CN1)C2C (stereo unspecified)         GI50  > 100 µM (inactive)
2  CCCCCCCCCCCCCCCCOC(=O)C(C(=O)OCCCCCCCCCCCCCCCC)[N+](C)(C)CCOC(C)=O         GI50   17.7 µM (inactive)
3  CC1(C)CC(O)C2=C(O1)C(=O)c1ncccc1C2=O (stereo unspecified)         GI50    2.6 µM (inactive)
4  CC(C)C(=O)CC(c1ccc(Br)cc1)N1N=C(C(C)C)CC1c1ccc(Br)cc1 (stereo unspecified)         GI50  > 100 µM (inactive)
5            CCC(=O)Nc1ncnc2ncn(C(=O)CC)c12         GI50  > 100 µM (inactive)
6  CN(C)CC1CCC/C(=C\c2ccc(N(C)C)cc2)C1=O (stereo unspecified)         GI50   5.45 µM (inactive)
7               S=C(Nc1cccc(Cl)c1)Nc1ccccn1         GI50  > 100 µM (inactive)
8  Cc1cc(S(=O)(=O)Nc2nc(N)n(-c3ccccc3)n2)c(S)cc1Cl         GI50  > 100 µM (inactive)
9   C=C(C)C1CC=C(C)CC1 (stereo unspecified)         GI50   1040 µM (inactive)

Turning to the following compound.
Q: So what's the measured GI50 for this one? "C[N+]1(C)CC=C(N2CCOCC2)CC1"
Ans: > 10 µM (inactive)

====

Test system: MOLT-4
experimentNotes: NCI tumour cell line growth inhibition, 48 h
Active and inactive are the calls of the source. Rule as the data show it: active = GI50 up to about 1.1 µM and inactive = higher.
Pick one and only one: 1 (active), 0 (inactive)

>>> print(df.to_string())
                                   molecule  discretelabel
0  C/C=C1/C=CC2c3[nH]c4ccccc4c3CCN2C1 (stereo not given)              0
1      Cc1nc(N)c(N2CCN(Cc3ccccc3)CC2)c(O)n1              0
2  CCCCC1(OC(=O)CCC(=O)O)CCC2(CCC(C)C(C/C=C(C)/C=C/C(O)C(C)/C=C/C(=O)O)O2)OC1CC/C(C)=C/C(=O)O (stereo not given)              0
3  CC(C)=CCC/C(C)=C/Cc1cc(/C=C/c2cc(O)c(CC=C(C)C)c(O)c2)cc(O)c1O              0

Proceed to the following item.
Q: Each molecule tested received a call. Report the one for "O=C1Nc2ccccc2/C1=N/NC(=S)N1CCCCCC1" .
Ans: 1

====

Consider the following compounds; for each one, report its GI50.
Tested on: M14
experimentNotes: NCI tumour cell line growth inhibition, 48 h
Activity calls are given as the source filed them. No stated cut-off is given here; in the data, active = GI50 up to about 1.1 µM and inactive = higher.

These solved cases illustrate the format of a correct answer.
compound	readoutName	measuredValue
CCN(CC)c1ccc(/C=C2\CCc3ccc([N+](=O)[O-])cc3C2=O)cc1	GI50	3.54 µM (inactive)
C=CCC1(CN(C)C)CC/C(=C\c2cc(OC)c(OC)c(OC)c2)C1=O (stereo unspecified)	GI50	19.4 µM (inactive)
CCN1/C(=C/C#C/C(C)=C\c2sc3ccc(Cl)cc3[n+]2CC)Sc2ccc(Cl)cc21	GI50	3.62 µM (inactive)
Cc1c(N)nc([C@H](CC(N)=O)NC[C@H](N)C(N)=O)nc1C(=O)N[C@H](C(=O)N[C@H](C)[C@@H](O)[C@H](C)C(=O)N[C@H](C(=O)NCCc1nc(-c2nc(C(=O)NCCC[S+](C)C)cs2)cs1)[C@@H](C)O)C(OC1OC(CO)C(O)C(O)C1OC1OC(CO)C(O)C(OC(N)=O)C1O)c1c[nH]cn1 (stereo partly specified)	GI50	1.56 µM (inactive)
Oc1cc2c(cc1C(c1ccc3c(c1)OCO3)N1CCN(C(c3ccc4c(c3)OCO4)c3cc4c(cc3O)OCO4)CC1)OCO2 (stereo unspecified)	GI50	14.4 µM (inactive)
O=C1CSC(C(/N=N/c2ccccc2)=C2Nc3ccccc3N2)=N1	GI50	70.3 µM (inactive)
O=C1NC(=O)/C(=N\c2cccc3c(=O)[nH][nH]c(=O)c23)C(c2nc3ccccc3s2)C1=O (stereo unspecified)	GI50	> 100 µM (inactive)
CC(C)=CCC12Cc3ccc(O)cc3C(C(C)CN1)C2C (stereo unspecified)	GI50	21 µM (inactive)

Quick one: give me GI50 for each item below, same order please.
1. Fc1sc2c(c1F)C1CCC2C1 (stereo unspecified)
2. Cc1nc(C)c(N2CCN(CN)CC2)c(O)n1
3. O=C(NCCOCCO)c1ccc(O)cc1

Ans:
> 100 µM (inactive)
> 100 µM (inactive)
> 100 µM (inactive)
